- target: recombinant HA, subtype H1 (A/New Caledonia/20/99 (H1N1)) (influenza A virus A/New Caledonia/20/99 …, UniProt Q289M7 18-565)
- method.notes: ELISA, coated HA, IgG 5 µg/ml
property: OD 492 nm (OD 492 nm)
State just the number; it will be interpreted in OD 492 nm.

Please review the following examples before continuing.
CR6257 (antibody, V domains shown) VH: QVQLVQSGAEVKKPGSSVKVSCKASGGPFRSYAISWVRQAPGQGPEWMGGIIPIFGTTKYAPKFQGRVTITADDFAGTVYMELSSLRSEDTAMYYCAKHMGYQVRETMDVWGKGTTVTVSS VL: QSALTQPAAVSGSPGQSITISCTGTSSDVGGYNYVSWYQQHPGKAPKLMIYEVSNRPSGVSNRFSGSKSGNTASLTISGLQAEDEADYYCSSYTSSSTYVFGTGTKVTVLG: 1.93
CR6332 (antibody, V domains shown) VH: QVQLVQSGAEVKKPGSSVKVSCKASGGPFRNFAINWVRQAPGQGLEWMGGIIAVFGTTKYAHKFQGRVTITADDSTNTAYMELGSLKSEDTAVYYCARGPHYYSSYMDVWGEGTTVTVSS VL: DIQLTQSPSSLSASVGDRVTITCRASQGISTYLAWYQQKPGKVPKLLIYAASTLQSGVPSRFSGSGSGTDFTLTISSLQPEDVATYYCQKYNSAPSFGPGTKVDIKR: 2.2
CR6334 (antibody, V domains shown) VH: EVQLVETGAEVKKPGSSVKVPCKSSGSPFRSNAVSWVRQAPGQGLEWVGGILGVFGSPSYAQKFQGRVTITADESTNTVHMELRGLRSEDTAVYYCARGPTYYYSYMDVWGKGTTVTVSS VL: SYVLTQPPSESVAPGQTARITCGGNNIGRNSVHWYQQKPGQAPVLVVYDDSDRPSGIPERFSGSKSGNTATLIISRVEVGDEADYYCQVWHSSSDHYVFGTGTKVTVLG: 2.04

QUERY: Please look up its OD 492 nm: CR6343 (antibody, V domains shown) VH: QVQLVQSGAEVKKPGSSVKVSCKASGVTFSYYAMSWVRQAPGQGLEWMGGISPMFGTTTYAQKFQGRVTITADDSTSTAYMEVRSLRSEDTAVYYCARSSNYYDSVYDYWGQGTLVTVSS VL: QSVVTQPPSESVAPGQTARITCGGHNIGSNSVHWYQQKPGQAPVLVVYDNSDRPSGIPERFSGSNSGNTATLTISRVEAGDEADYYCQVWGSSSDHYVFGTGTKVTVLG
RESULT: 1.28

QUERY: Please look up its OD 492 nm: CR6336 (antibody, V domains shown) VH: QMQLVQSGAEVKKPGSSVKVSCKASGGTFSSYAISWVRQAPGQGLEWMGGIFGMFGTANYAQKFQGRVTITADEFTSAAYMELSSLGSEDTAMYYCARSSGYYPQYFQDWGQGTLVTVSS VL: EIVMTQSPGTLSLSPGQRATLSCRASQSVSSSYLAWYQQKPGQAPRLLMYGASSRATGIPDRFSGSGSGTDFTLTISRLEPEDFAVYYCQQYGSSSLTFGGGTKLEIKR
RESULT: 1.92

QUERY: Please look up its OD 492 nm: CR6272 (antibody, V domains shown) VH: QMQLVQSGAEVKKPGSSVKVSCKASGGTFSSYAITWVRQAPGQGLEWMGGIIGMFGSTNYAQNFQGRVTITADESTSTAYMELSSLRSEDTAVYYCARSTGYYPAYLHHWGQGTLVTVSS VL: QSALTQPRSVSGSPGQSVTISCTGTSSDVGGYNYVSWYQQHPGKAPKLMIYDVSKRPSGVPDRFSGSKSGNTASLTISGLQAEDEADYYCSSYTSSSTHVFGTGTKVTVLG
RESULT: 0.81
